# study system: 5'-AMP-activated protein kinase catalytic subunit alpha-1 (Homo sapiens) (UniProt Q13131);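 further: mean percent inhibition of the AMPK A1B1G1 complex (alpha1 beta1 gamma1) in the GSK PKIS kinase inhibitor screen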
# Sequence (Q13131 whole entry, looked up): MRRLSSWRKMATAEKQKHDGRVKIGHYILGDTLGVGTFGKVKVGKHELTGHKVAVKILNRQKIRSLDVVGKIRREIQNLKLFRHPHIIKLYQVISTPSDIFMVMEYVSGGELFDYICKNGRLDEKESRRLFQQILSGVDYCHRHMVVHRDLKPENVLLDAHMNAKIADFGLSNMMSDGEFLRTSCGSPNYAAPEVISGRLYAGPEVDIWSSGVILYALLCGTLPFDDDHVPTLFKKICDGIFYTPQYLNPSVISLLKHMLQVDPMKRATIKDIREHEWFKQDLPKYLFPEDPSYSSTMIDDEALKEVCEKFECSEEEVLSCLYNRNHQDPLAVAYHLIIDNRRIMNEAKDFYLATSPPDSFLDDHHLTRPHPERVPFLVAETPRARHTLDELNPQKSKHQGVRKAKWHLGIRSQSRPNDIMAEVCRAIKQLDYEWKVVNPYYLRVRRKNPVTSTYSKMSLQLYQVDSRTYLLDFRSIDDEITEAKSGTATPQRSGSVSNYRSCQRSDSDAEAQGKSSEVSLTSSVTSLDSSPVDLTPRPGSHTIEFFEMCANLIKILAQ
# stated conditions: at 1 µM
endpoint: inhibition (%)
Write it as a number; the unit % goes unstated.

Consider the worked cases shown below.
NC(=O)c1cccc(Nc2nccc(Nc3cccc(F)c3)n2)c1	3.96
Cc1cc(O)cc(C)c1/C=C/c1cncc(C(=O)N(C)C)c1	1.76

Given COC(=O)c1cncc(/C=C/c2c(C)cc(O)cc2C)c1 , state its recorded inhibition.
5.18

Request: CCS(=O)(=O)c1ccc(OC)c(Nc2nccc(N(C)c3ccc4c(C)n[nH]c4c3)n2)c1
2.62

Request: CN(C)CCCn1c(-c2nonc2N)nc2cnccc21
2.04

Request: CS(=O)(=O)Nc1cccc(-c2ccc3c(NC(=O)C4CC4)n[nH]c3c2)c1
1.56

* * *

# study system: RAC-beta serine/threonine-protein kinase (Homo sapiens);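 further: reported figure is the mean percent inhibition of AKT2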
# stated conditions: at 0.1 µM
endpoint: inhibition (%)
Write it as a number; the unit % goes unstated.

Given COC(=O)c1cncc(/C=C/c2c(C)cc(O)cc2C)c1 , state its recorded inhibition.
1.09

Request: Cc1cc(Cl)cc2c1NC(=O)C2=NNc1ccc(S(N)(=O)=O)cc1
0.6

Request: CC(C)c1ccc(Nc2nccc(-c3cnn4ncccc34)n2)cc1
1.28

* * *

# study system: PAS domain-containing serine/threonine-protein kinase (Homo sapiens)
# stated conditions: at 1 µM
endpoint: inhibition (%)
Write it as a number; the unit % goes unstated.

Consider the worked cases shown below.
COc1cc(/C=N/Nc2ncnc3c2cnn3C(C)C)ccc1O	-1.33
Cc1ccc2c(c1)/C(=N/Nc1ccc(S(N)(=O)=O)cc1)C(=O)N2	0.32
CC(C)c1ccc(Nc2nccc(-c3cnn4ncccc34)n2)cc1	-0.93
OCc1ccc(-c2nc(-c3ccccn3)c(-c3ccc4c(c3)OCO4)[nH]2)cc1	-1.14
CCn1c(-c2nonc2N)nc2ccc(F)cc21	0.49
CCn1c(-c2nonc2N)nc2c(C#CC(C)(C)O)nc(OCCNC)cc21	0.6

# value lookup — system PAS domain-containing serine/threonine-protein kinase (Homo sapiens), readout inhibition, item Cc1ccc(C(=O)NC2CC2)cc1-c1ccc2[nH]ncc2c1;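 further: reported value is the mean percent inhibition of PASK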
1.27

Request: CS(=O)(=O)CCNCc1nc(-c2ccc3ncnc(Nc4ccc(OCc5cccc(C(F)(F)F)c5)cc4)c3c2)cs1
-0.13

Request: O=C(Nc1ccc(Oc2ccc3[nH]c(NC(=O)c4ccco4)nc3c2)cc1)Nc1cc(C(F)(F)F)ccc1F
0.06

Request: CCOc1nccc2c1nc(-c1nonc1N)n2CC
5.36

* * *

# study system: RAC-alpha serine/threonine-protein kinase (Homo sapiens)
# stated conditions: at 1 µM
# Description: GSK_PKIS: AKT1 mean inhibition at 1 uM [Nanosyn]
Label rule, in plain words: inhibition of 1% and up is YES, under 1% is NO.

Examples from the recorded data:
Cc1ccc(NC(=O)CC2CC2)cc1-c1ccc(C(=O)NCC2CC2)cc1	NO
NS(=O)(=O)c1cccc(Nc2cc(-c3ccc(F)cc3)n[nH]2)c1	YES
Cc1ccc2c(-c3ccnc(Nc4ccc5c(c4)OCCO5)n3)c(-c3ccc(C(F)(F)F)cc3)nn2n1	YES

Now for another entry.
# bool: inhibition of Oc1cccc(-c2nc(-c3ccccc3)[nH]c2-c2ccncc2)c1 >= 1%
YES

* * *

# study system: Interleukin-1 receptor-associated kinase 4 (Homo sapiens);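 further: reported figure is the mean inhibition of IRAK4 activity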
# stated conditions: at 0.1 µM
endpoint: inhibition (%)
Write it as a number; the unit % goes unstated.

NS(=O)(=O)c1ccc(N/N=C2\C(=O)Nc3ccc(Cl)cc32)cc1	1.38

Given CC(C)c1ccc2c(c1)NC(=O)/C2=N/Nc1ccc(S(N)(=O)=O)cc1 , state its recorded inhibition.
0.36

Request: N#Cc1cccc(Nc2nccc(-c3cnn4ncccc34)n2)c1
4.11

Request: NS(=O)(=O)c1cccc(Nc2cc(-c3ccc(F)cc3)n[nH]2)c1
-1.86

Request: CCOc1nccc2c1nc(-c1nonc1N)n2CC
-2.37

Request: NC(=O)c1sc(-n2cnc3ccccc32)cc1OCc1ccccc1Br
1.39

Request: Cc1cc(O)cc(C)c1/C=C/c1cncc(C(=O)N(C)C)c1
-1.62

Request: COc1ccc(-c2nn3ncccc3c2-c2ccnc(Nc3cccc(C(F)(F)F)c3)n2)cc1
2.1

Request: Oc1cccc(-c2nc(-c3ccccc3)[nH]c2-c2ccncc2)c1
-4.12

Request: COc1cc(Nc2nccc(-c3cnn4ncccc34)n2)cc(OC)c1
5.71

Request: NC(=O)c1cccc(Nc2nccc(Nc3cccc(F)c3)n2)c1
0.1
